Below is a list of entries, each paired with its recorded composite z-score value.
# procedure summary: compounds binding Alexa647 anti-His antibody – biochemical, small-molecule microarray, 635 nm fluorescence, artefact control for SMM control protein annotation, primary screen (AID 1128);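 note: score merges feature fluorescence with signal-to-noise for each printed compound spot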
# experimental conditions: higher = more signal
The answer should be written as a number, with no unit following it.

Some solved cases for reference:
{"columns": ["compound", "composite z-score"],
 "data": [
  ["[N-]=[N+]=Nc1ccccc1C[C@@]1(C(=O)N2CCOCC2)N=C(c2ccc(OCCCO)cc2)O[C@@H]1c1ccccc1", 1.19],
  ["Cc1ccc(S[C@]2(C(=O)NC(C)C)CC(=O)N(Cc3cc(C(F)(F)F)cc(C(F)(F)F)c3)[C@@H]2c2ccc(CO)cc2)cc1", -0.254],
  ["COCCOC(=O)N1C(=O)[C@@]2(c3ccccc31)[C@H](C(=O)NC[C@H](O)c1ccccc1)[C@H]1C(=O)O[C@H](c3ccccc3)[C@H](c3ccccc3)N1[C@@H]2c1ccc(O)cc1", 1.43],
  ["C[N+](C)(C)CCCC[C@@H]1NC(=O)[C@@H]2C[C@H](C(=O)NCCCCCCN)[C@H](c3cccc(OCCO)c3)N2C1=O", 3.26],
  ["Cc1cc(C)c(C(O)C2C=CC3C(=O)N(c4ccccc4)C(=O)C3N2Nc2ccccc2F)c(C)c1 (configuration not stated)", 1.29],
  ["O=C(O)[C@@H]1[C@@H]2C(=O)N(c3ccccc3)C(=O)[C@@H]2C[C@@H]1Sc1ccccc1", -0.102]
]}

Task: Fill blank: measured composite z-score of the compound CCCC[C@@H]1C[C@H]1[C@@H](NC(=O)c1cccs1)c1ccccc1C(F)(F)F is ____.
Result: 1.01

====

# procedure summary: growth of efflux-deficient E. coli DRC39 – strain DRC39, OD650, 48 h, E. coli filamentation inducers, primary screen (AID 1179);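 note: screen aims at cell division blockers that make cells filament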
# experimental conditions: E. coli DRC39 delta-acrAB growth, higher = more signal, called active from +8 up or from −8 down
metric: z-score
Field format: numeric only.

{"columns": ["compound", "observed measurement"],
 "data": [
  ["CCCCC(CC)C(O)C1C=CC2C(=O)N(c3ccccc3)C(=O)C2N1Nc1ccccc1F (centres undefined)", 0.644],
  ["O=C1C[C@]2(c3ccc([N+](=O)[O-])cc3)C(=O)N(C3CC3)c3cc(CO)ccc3[C@H]2N1CC12CC3CC(CC(C3)C1)C2", -0.616],
  ["CC(C)N1C(=O)C[C@@](C(=O)NC2CC2)(c2ccc([N+](=O)[O-])cc2)[C@H]1c1ccc(CO)cc1", 0.167]
]}

Task: What measured z-score goes with C=C(COC)/C(=C/C[C@H](OC(=O)c1ccncc1)c1ccccc1OCCO)c1cc(C(=O)OC)ccc1OC ?
Result: -1.21

Task: // lookup z-score for CO[C@H]1O[C@H](CO)[C@@H](OC(=O)Nc2ccc(Br)cc2)[C@@H]2OC(=O)[C@@H](Cc3ccccc3)C/C=C/C[C@H](Cc3ccccc3)C(=O)O[C@@H]12
Result: 0.347

Task: Any idea what its z-score is? The compound is C=CCC(OC(C)=O)[C@@H]1[C@@H](N(Cc2ccc(-c3ccccc3)cc2)C(=O)c2ccc(-c3ccccc3)cc2)c2cc(OCCCO)ccc2N1C(=O)c1ccc2ccccc2c1 (some centres undefined)
Result: -0.756

Task: Return reported z-score; argument: Cc1ccc(S[C@]2(C(=O)NCC(F)(F)F)CC(=O)N(Cc3cc(C(F)(F)F)cc(C(F)(F)F)c3)[C@@H]2c2ccc(CO)cc2I)cc1
Result: -0.0582

Task: Look up z-score: COCCOC(=O)N1C(=O)[C@@]2(c3cc(C#CCC(C(=O)OC)C(=O)OC)ccc31)[C@H](c1ccc(OCCO)cc1)N1[C@H](c3ccccc3)[C@H](c3ccccc3)OC(=O)[C@H]1[C@@H]2C(=O)N1CCc2cc(OC)c(OC)cc2C1
Result: 0.294

Task: Fill blank: measured z-score of the compound CN1C(=O)C2C=CC(C(O)c3cccn3C)N(Nc3ccc([N+](=O)[O-])cc3[N+](=O)[O-])C2C1=O (centres undefined) is ____.
Result: -0.119

Task: Entry O=C1OCCC=C[C@H]2OC34C=CCN(Cn5nnc6ccccc65)C(=O)[C@H]3N(CCCO)C(=O)[C@@H]4C12 (some centres undefined) has what z-score?
Result: -0.951

Task: Any idea what z-score was measured for CC(C)(C)OC(=O)COc1cccc(C(=O)CCN2CCOCC2)c1 ?
Result: 0.0359

Task: // query z-score value for entry COCCCNC(=O)[C@@]1(CCC(=O)OC(C)(C)C)N=C(c2ccc(OCCCO)cc2)O[C@H]1c1ccccc1N=[N+]=[N-]
Result: 0.268

Task: Requested field: z-score. Item: COCCCNC(=O)[C@@H]1c2ccccc2C(=O)N(C(C)C)[C@H]1c1ccc(CO)cc1
Result: -0.525

Task: Query: z-score; subject: COC(=O)[C@@]1(Cc2ccc(OC)cc2)[C@H]2c3cc(C(=O)N4CCCC4)n(CCc4c[nH]c5ccc(OC)cc45)c3C[C@H]2CN1C(=O)c1ccccc1
Result: -0.0765
